- ASSAY_SYSTEM: Estrogen receptor beta (Homo sapiens) (UniProt Q92731)
- Sequence (Q92731 whole entry): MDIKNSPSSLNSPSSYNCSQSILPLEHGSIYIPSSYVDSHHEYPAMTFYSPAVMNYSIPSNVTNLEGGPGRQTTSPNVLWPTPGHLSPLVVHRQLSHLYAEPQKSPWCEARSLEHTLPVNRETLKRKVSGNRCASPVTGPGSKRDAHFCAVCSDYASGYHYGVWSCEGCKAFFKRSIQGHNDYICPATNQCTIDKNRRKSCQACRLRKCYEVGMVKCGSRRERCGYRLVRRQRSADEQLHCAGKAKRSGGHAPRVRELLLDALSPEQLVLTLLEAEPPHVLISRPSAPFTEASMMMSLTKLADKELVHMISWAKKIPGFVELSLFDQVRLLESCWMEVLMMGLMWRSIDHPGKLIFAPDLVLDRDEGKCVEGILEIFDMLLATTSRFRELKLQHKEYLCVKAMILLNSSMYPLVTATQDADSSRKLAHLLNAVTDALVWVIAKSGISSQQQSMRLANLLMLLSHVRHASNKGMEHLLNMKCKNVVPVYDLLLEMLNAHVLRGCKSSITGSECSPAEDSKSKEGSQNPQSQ
- METHOD: Displacement of [3H]estradiol form ERbeta assessed as relative binding affinity relative to estradiol
MEASURED_METRIC: RBA (%)

Before answering, review these 2 worked examples.
[
  {
    "INPUT_SMILES": "Cc1cc(O)ccc1[C@H]1CC[C@@]2(C)[C@@H](CC[C@@H]2O)C1",
    "OUTPUT_UNIT": "%",
    "RBA": 33.6
  },
  {
    "INPUT_SMILES": "C[C@]12CC[C@H](c3ccc(O)cc3)C[C@@H]1CC[C@@H]2O",
    "OUTPUT_UNIT": "%",
    "RBA": 21.5
  }
]

I. C[C@]12CC[C@H](c3ccc(O)c(F)c3F)C[C@@H]1CC[C@@H]2O
II. C[C@]12CC[C@H](c3cc(F)c(O)c(F)c3)C[C@@H]1CC[C@@H]2O
Q. For the two items I and II , which reports the higher RBA value? Answer by stating the label of the chosen item.
A. I
(I: 43%, II: 0.28%)
